Data provenance is patent US20240083904A1.

Ki: recorded values
assayed system: human Adenosine A1 receptor (Homo sapiens (Human), UniProt P30542)
Sequence (P30542 whole entry): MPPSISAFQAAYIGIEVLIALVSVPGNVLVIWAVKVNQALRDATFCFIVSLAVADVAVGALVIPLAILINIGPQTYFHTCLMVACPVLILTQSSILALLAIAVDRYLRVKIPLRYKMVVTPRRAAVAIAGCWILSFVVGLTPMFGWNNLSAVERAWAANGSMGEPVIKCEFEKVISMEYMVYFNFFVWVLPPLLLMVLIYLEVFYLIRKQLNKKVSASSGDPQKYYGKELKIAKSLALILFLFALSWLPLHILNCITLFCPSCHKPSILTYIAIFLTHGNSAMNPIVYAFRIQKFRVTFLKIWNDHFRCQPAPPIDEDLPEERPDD
protocol details: Adenosine receptor TR-FRET binding assay (A1)
run parameters: CHO cell membranes, 100 nM CA200645, Ki from IC50 by Cheng and Prusoff
Output spec: scalar in nM, unitless text.

(Q) Input Cc1cc(-c2c(-c3cccc(C#N)c3)nc3ccc(C(=O)NCC(C)(C)O)nn23)cc(C)n1 , output reported Ki.
(A) 667

(Q) Return Ki for the following molecule: Cc1cc(-c2c(-c3cccc(C#N)c3)nc3ccc(C(=O)N[C@@H](C)C(C)(C)O)nn23)cc(Cl)n1
(A) 96

(Q) Provide measured Ki value, entry: Cc1cc(-c2c(-c3cccc(C#N)c3)nc3ccc(C(=O)N[C@@H](C)C(C)(C)O)nn23)cc(C)n1
(A) 71

(Q) Supply measured Ki of Cc1cc(-c2c(-c3cccc(C#N)c3)nc3ccc(C(=O)N[C@@H](C)C(C)(C)O)nn23)cc(C(F)F)n1 in your reply.
(A) 78

* * *

assayed system: human Adenosine A1 receptor (Homo sapiens (Human))
Measured Ki values are reported for all entries that follow.
Answer format: numeric, nM implied, no suffix.

Some solved entries appear below for comparison.
- molecule smiles: "Cc1cc(-c2c(-c3cccc(C#N)c3)nc3ccc(C(=O)NCC(C)(C)O)nn23)cc(Cl)n1"
  assay value: 363
- molecule smiles: "COc1cc(-c2c(-c3cccc(C#N)c3)nc3ccc(C(=O)N[C@@H](C)C(C)(C)O)nn23)cc(C)n1"
  assay value: 243
- molecule smiles: "Cc1cc(-c2c(-c3cccc(C#N)c3)nc3ccc(C(=O)N[C@@H](C)C(C)(C)O)nn23)cc(C(F)(F)F)n1"
  assay value: 30

(Q) For human Adenosine A1 receptor (Homo sapiens (Human)), give Ki of the listed compound: Cc1cc(-c2c(-c3cccc(C#N)c3)nc3ccc(C(=O)NCC(C)(C)O)nn23)cc(C(F)(F)F)n1
(A) 95

(Q) Find the measured Ki of CC(=O)c1cc(-c2c(-c3cccc(C#N)c3)nc3ccc(C(=O)NCC(C)(C)O)nn23)cc(C)n1 with human Adenosine A1 receptor (Homo sapiens (Human)) as test system.
(A) 1830

* * *

Ki, human Adenosine A2b receptor (Homo sapiens (Human), UniProt P29275), per-entry values.
Kindly write the number and append the unit.

- compound: "COc1cc(-c2c(-c3cccc(C#N)c3)nc3ccc(C(=O)N[C@@H](C)C(C)(C)O)nn23)cc(C)n1 [Example 2.8]"
  Ki: "285 nM"
- compound: "Cc1cc(-c2c(-c3cccc(C#N)c3)nc3ccc(C(=O)NCC(C)(C)O)nn23)cc(C)n1 [Example 2.1]"
  Ki: "212 nM"
- compound: "Cc1cc(-c2c(-c3cccc(C#N)c3)nc3ccc(C(=O)N[C@@H](C)C(C)(C)O)nn23)cc(C)n1 [Example 3]"
  Ki: "31 nM"
- compound: "COc1cc(-c2c(-c3cccc(C#N)c3)nc3ccc(C(=O)NCC(C)(C)O)nn23)cc(C)n1 [Example 2.4]"
  Ki: "156 nM"

(Q) Answer with the recorded Ki for the compound listed here: Cc1cc(-c2c(-c3cccc(C#N)c3)nc3ccc(C(=O)N[C@H](C)C(C)(C)O)nn23)cc(C(F)(F)F)n1 [Example 2.7]
(A) 79 nM

(Q) Please report the measured Ki for Cc1cc(-c2c(-c3cccc(C#N)c3)nc3ccc(C(=O)N[C@@H](C)C(C)(C)O)nn23)cc(C(F)(F)F)n1 [Example 2.6]
(A) 18 nM

(Q) Give the value of Ki reported for the following: Cc1cc(-c2c(-c3cccc(C#N)c3)nc3ccc(C(=O)N[C@@H](C)C(C)(C)O)nn23)cc(CO)n1 [Example 6]
(A) 49 nM
